Recorded values, source patent US8552032B2.

systemTested: recombinant human DPP-1 (Cathepsin C) (Homo sapiens, UniProt P53634)
Sequence (P53634 25-463): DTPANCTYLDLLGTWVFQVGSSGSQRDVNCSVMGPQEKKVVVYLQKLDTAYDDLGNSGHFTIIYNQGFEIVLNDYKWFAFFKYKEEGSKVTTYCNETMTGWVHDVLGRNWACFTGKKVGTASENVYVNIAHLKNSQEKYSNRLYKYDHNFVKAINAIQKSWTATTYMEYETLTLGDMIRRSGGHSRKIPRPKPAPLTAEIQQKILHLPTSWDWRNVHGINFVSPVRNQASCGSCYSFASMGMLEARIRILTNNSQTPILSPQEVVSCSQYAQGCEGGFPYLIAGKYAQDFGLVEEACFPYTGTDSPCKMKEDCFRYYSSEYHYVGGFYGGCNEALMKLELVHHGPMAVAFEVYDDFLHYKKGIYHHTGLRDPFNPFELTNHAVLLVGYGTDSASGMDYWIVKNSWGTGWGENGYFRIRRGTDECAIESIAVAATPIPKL
assayDetails: DPP-1 Inhibition Assay (in vitro), fluorogenic substrate GR-AMC
condition: 0.15 nM DPP-1, 10 uM GR-AMC, pH 7.0, room temperature; average value where tested multiple times
endpointName: log10(IC50) (log10 of the value in nM)
Response schema: value (number) is log10 of IC50 in units of nM.

Some compounds with recorded log10(IC50):
Inquiry: // query log10(IC50) value for entry `CC[C@H](N)C(=O)NCCCc1cc2cc(C(=O)NCc3ccccc3)ccc2o1`
Reply text: 3.87

Inquiry: // query log10(IC50) value for entry `CC[C@H](N)C(=O)NCCCc1cc2cc(C(=O)Nc3cccc4cccnc34)ccc2o1`
Reply text: 2.96

Inquiry: // query log10(IC50) value for entry `CC[C@H](N)C(=O)NCCCc1cc2cc(C(=O)Nc3cccc4ncccc34)ccc2o1`
Reply text: 2.34

Inquiry: // query log10(IC50) value for entry `N[C@@H](Cc1cccs1)C(=O)N1CCC(c2cc3cc(-c4ccc5c(c4)OCCO5)ccc3[nH]2)CC1`
Reply text: 2.43

Inquiry: // query log10(IC50) value for entry `CC[C@H](N)C(=O)NCCCc1cc2cc(-c3cccc(S(N)(=O)=O)c3)ccc2[nH]1`
Reply text: 2.85

More entries:
Inquiry: // query log10(IC50) value for entry `CC[C@H](N)C(=O)NCCCc1cc2cc(-c3ccccc3)ccc2[nH]1`
Reply text: 2.72

Inquiry: // query log10(IC50) value for entry `CC[C@H](N)C(=O)NCCCc1cc2cc(C(=O)Nc3ccccc3C(C)C)ccc2[nH]1`
Reply text: 3.08

Inquiry: // query log10(IC50) value for entry `NC(=O)c1cccc(-c2ccc3[nH]c(C4CCN(C(=O)[C@@H](N)Cc5nccs5)CC4)cc3c2)c1`
Reply text: 2.66

Inquiry: // query log10(IC50) value for entry `CC[C@H](N)C(=O)NCCCc1cc2ccccc2[nH]1`
Reply text: 3.46

Inquiry: // query log10(IC50) value for entry `NC(=O)c1cccc(-c2ccc3[nH]c(C4CCN(C(=O)[C@@H](N)Cc5cccs5)CC4)nc3c2)c1`
Reply text: 2.38

* * *

systemTested: recombinant human DPP-1 (Cathepsin C) (Homo sapiens, UniProt P53634)
assayDetails: DPP-1 Inhibition Assay (in vitro), fluorogenic substrate GR-AMC
condition: 0.15 nM DPP-1, 10 uM GR-AMC, pH 7.0, room temperature; average value where tested multiple times
endpointName: log10(IC50) (log10 of the value in nM)
Response schema: value (number) is log10 of IC50 in units of nM.

Some compounds with recorded log10(IC50):
Inquiry: // query log10(IC50) value for entry N[C@@H](Cc1cccs1)C(=O)N1CCC(c2cc3cc(-c4ccc(C(=O)O)cc4)ccc3[nH]2)CC1 [Compound 27]
Reply text: 2.77

Inquiry: // query log10(IC50) value for entry COc1ccc(NC(=O)c2ccc3[nH]c(C4CCN(C(=O)[C@@H](N)Cc5cccs5)CC4)cc3c2)cc1OC [Compound 7]
Reply text: 2.15

Inquiry: // query log10(IC50) value for entry CC[C@H](N)C(=O)NCCCc1cc2cc(C(=O)Nc3ccc(C(C)C)cc3)ccc2[nH]1 [Compound 80]
Reply text: 2.83

Inquiry: // query log10(IC50) value for entry CC[C@H](N)C(=O)NCCCc1cc2cc([N+](=O)[O-])ccc2o1 [Compound 49]
Reply text: 4.28

Shifting focus to the compound that follows.
Inquiry: // query log10(IC50) value for entry COc1ccc(-c2ccc3[nH]c(C4CCN(C(=O)[C@@H](N)Cc5cccs5)CC4)nc3c2)cc1OC [Compound 18]
Reply text: 2.32
